Cited source: PubChem BioAssay

Recorded measurements of composite z-score, one per entry
experiment: small molecules captured by biotinylated probe aFGF2 – biochemical, small-molecule microarray, fluorescence 635/667, stem cell growth factor project, primary screen (AID 1067); settings: higher = more signal;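 further: measures binding of biotinylated aFGF2 protein to printed compounds on slides; z-score merges feature fluorescence and signal-to-noise across triplicate slides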
Attribute measured: composite z-score

{"Compound": "CCCC=C(CCC)[C@@H](NC(=O)OCC(C)C)c1ccc(C(=O)OC)cc1", "Value reported": -0.0596}
{"Compound": "C=CCN1C(=O)[C@@]2(O[C@@H](CCn3cc([C@H](O)c4ccccc4)nn3)[C@H]([Si](C)(C)c3ccc(OC)cc3)[C@H]2C)c2cc(N3C(=O)c4cccc5cccc3c45)ccc21", "Value reported": -0.151}
{"Compound": "C=C(CCCC)C(=O)CC[C@@H](OC(=O)c1ccccc1-c1ccccc1C(=O)O)c1ccccc1OCCO", "Value reported": -0.0566}
{"Compound": "COc1ccc([Si](C)(C)[C@H]2[C@H](CC(=O)N3Cc4ccccc4C[C@H]3CO)O[C@@]3(C(=O)N(c4ccccc4)c4ccccc43)[C@@H]2C)cc1", "Value reported": 0.0568}
{"Compound": "COc1ccc([Si](C)(C)[C@@H]2[C@@H](CC(=O)N3Cc4ccccc4C[C@H]3CO)O[C@]3(C(=O)N(Cc4ccc(N5CCOC5=O)cc4)c4ccccc43)[C@H]2C)cc1", "Value reported": -0.178}
{"Compound": "C=CCC(OC(C)=O)[C@@H]1[C@@H](N(Cc2ccc(-c3ccccc3)cc2)C(=O)c2cccc3ccccc23)c2cc(OCCCO)ccc2N1C(=O)Cc1ccc(OC)cc1 (some centres undefined)", "Value reported": -0.108}
{"Compound": "COCCOC(=O)N1C(=O)[C@@]2(c3cc(C#CC4(O)CCCCCC4)ccc31)[C@H](c1ccc(O)cc1)N1[C@H](c3ccccc3)[C@H](c3ccccc3)OC(=O)[C@H]1[C@@H]2C(=O)N1CCCCCCC1", "Value reported": 0.0059}
{"Compound": "COC(=O)[C@@]1(Cc2ccccc2)[C@H]2c3cc(C(=O)N(C)C)n(Cc4ccc(S(C)(=O)=O)cc4)c3C[C@H]2CN1C(=O)c1ccccc1", "Value reported": 0.431}
{"Compound": "C=CC1c2cc(O)c(OC)cc2CCN1C (centres undefined)", "Value reported": -0.103}
{"Compound": "COCCOC(=O)N1C(=O)[C@@]2(c3cc(C#CCC(C(=O)OC)C(=O)OC)ccc31)[C@H](c1ccc(O)cc1)N1[C@H](c3ccccc3)[C@H](c3ccccc3)OC(=O)[C@H]1[C@@H]2C(=O)Nc1nc2ccccc2s1", "Value reported": 0.0001}
{"Compound": "COc1ccc([Si](C)(C)[C@H]2[C@H](CCO)O[C@@]3(C(=O)N(Cc4cccc(N(C=O)c5ccccc5)c4)c4ccccc43)[C@@H]2C)cc1", "Value reported": 0.0155}
{"Compound": "COC(=O)c1cccc([C@H]2OC(=CC(=O)OC(C)C)C[C@@H](c3cccc(C(=O)OC)c3)O2)c1", "Value reported": 0.357}
{"Compound": "CN(C)CCCCNC(=O)[C@H]1C[C@H]2C(=O)NCC(=O)N2[C@H]1c1ccc(O)cc1", "Value reported": -0.273}
{"Compound": "COc1ccc(C(=O)Nc2cccc(CN3C(=O)[C@@]4(O[C@@H](CC(=O)N5CCC[C@H]5CO)[C@H]([Si](C)(C)c5ccc(OC)cc5)[C@H]4C)c4ccccc43)c2)cc1", "Value reported": -0.0625}

---

target: E3 ubiquitin-protein ligase XIAP (Homo sapiens); test: small molecules binding XIAP protein – biophysical, small-molecule microarray, fluorescence 635 nm, primary screen (AID 1181); details: higher = more signal;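 further: score merges 667 nm emission and signal to noise over triplicate slides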
Output 1.0 for composite z-score not less than -0.06; output 0.0 otherwise.

{"Molecule": "CO[C@H]1O[C@H](CO)[C@@H](OC(=O)Nc2ccccc2-c2ccccc2)[C@H](OC(=O)Nc2ccccc2)[C@H]1OC(=O)Nc1ccccc1", "System tested": "E3 ubiquitin-protein ligase XIAP (Homo sapiens)", "Class": 1.0}
{"Molecule": "C=CCC(OC(C)=O)[C@@H]1[C@@H](N(Cc2ccc(-c3cccc(C(F)(F)F)c3)o2)C(=O)Cc2ccc(F)cc2)c2cc(OCCCO)ccc2N1C(=O)Cc1ccc2ccccc2c1 (some centres not stated)", "System tested": "E3 ubiquitin-protein ligase XIAP (Homo sapiens)", "Class": 0.0}
{"Molecule": "C=CCC(OC(C)=O)[C@@H]1[C@@H](N(Cc2cccc3ccccc23)C(=O)Cc2ccc(OC)cc2)c2cc(OCCCO)ccc2N1C(=O)Cc1ccc2ccccc2c1 (some centres not stated)", "System tested": "E3 ubiquitin-protein ligase XIAP (Homo sapiens)", "Class": 1.0}
{"Molecule": "C=CCC(OC(C)=O)[C@@H]1[C@@H](N(Cc2cc3ccccc3o2)C(=O)Cc2ccc(OC)cc2)c2cc(OCCCO)ccc2N1C(=O)c1ccc2ccccc2n1 (some centres not stated)", "System tested": "E3 ubiquitin-protein ligase XIAP (Homo sapiens)", "Class": 1.0}
{"Molecule": "COc1ccc(C(O)C2C=CC3C(=O)NC(=O)C3N2Nc2ccc(Cl)cc2Cl)c2ccccc12 (configuration not stated)", "System tested": "E3 ubiquitin-protein ligase XIAP (Homo sapiens)", "Class": 1.0}
{"Molecule": "OCCCC1=CC(c2ccc(CN3CCCC3)cc2)N(Cc2cccc(OC(F)(F)F)c2)CC1 (configuration not stated)", "System tested": "E3 ubiquitin-protein ligase XIAP (Homo sapiens)", "Class": 1.0}
{"Molecule": "[N-]=[N+]=Nc1ccccc1C[C@@]1(C(=O)NCc2ccccc2)N=C(c2ccc(OCCCO)cc2)O[C@@H]1c1ccccc1N=[N+]=[N-]", "System tested": "E3 ubiquitin-protein ligase XIAP (Homo sapiens)", "Class": 0.0}

---

Listed next: entries and their corresponding z-score.
experiment: JC-1 mitochondrial potential readout, lung cancer cells – cell-based, A549, JC-1 fluorescence, basal, 24 h, 100 nL, profiling panel (AID 1138); settings: higher = more signal;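 further: A549 lung adenocarcinoma cells under basal conditions with no added stimulus; test concentration not given here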
Attribute measured: z-score

{"Smi": "O=C1[C@H]2C=C(I)[C@H](C[C@@H]2c2ccccc2)[C@@]12CO2", "Value reported": 0.949}
{"Smi": "COC(=O)[C@@]1(Cc2ccc(OC)cc2)[C@H]2c3cc(C(=O)N4CCCC4)n(CCn4cc([N+](=O)[O-])nc4C)c3C[C@H]2CN1C(=O)c1ccccc1", "Value reported": 1.33}
{"Smi": "CCOC(=O)C[C@H]1[C@H](OC(=O)c2ccccc2-c2ccccc2)[C@@H](NC(=O)C2CCCCC2)c2cc(OCCCO)ccc2N1C(=O)c1ccc2ccccc2n1", "Value reported": 0.309}
{"Smi": "Cc1ccc(S[C@]2(C(=O)NCC(F)(F)F)CC(=O)N(Cc3ccccc3C(F)(F)F)[C@@H]2c2ccc(CO)cc2)cc1", "Value reported": -0.144}

---

assay: resazurin metabolic signal in A549 cells – cell-based, resazurin fluorescence, 24 h, PK04 Diversity Set, profiling panel (AID 1171); settings: A549 viability, higher = more signal, called active from +8 up or from −8 down; further: test concentration not given here
Activity calls are given as the source filed them.
Attribute measured: z-score

{"Compound": "C=CCOC(=O)[C@@H]1[C@H]2C(=O)O[C@H](c3ccccc3)[C@H](c3ccccc3)N2[C@H](c2ccc(OCCOC(=O)[C@H]3C[C@H]4C(=O)NCC(=O)N4[C@H]3c3cccc(OCCO)c3)cc2)[C@@]12C(=O)Nc1ccc(I)cc12", "Value reported": "0.169 (inactive)"}
{"Compound": "C=C(CCCC)C(=O)CC[C@@H](OC(=O)c1ccccc1-c1ccccc1C(=O)O)c1ccccc1OCCO", "Value reported": "0.573 (inactive)"}
{"Compound": "NCCCCCCNC(=O)[C@@H]1C[C@@H]2C(=O)N3CCC[C@H]3C(=O)N2[C@@H]1c1cccc(OCCO)c1", "Value reported": "0.999 (inactive)"}
{"Compound": "O=C1C2C=CC(C(O)c3ccc([N+](=O)[O-])cc3)N(Nc3ccccc3F)C2C(=O)N1c1ccccc1 (stereo not given)", "Value reported": "-0.364 (inactive)"}
{"Compound": "O=C1O[C@H](c2ccccc2)[C@H](c2ccccc2)N2[C@H]1[C@@H](C(=O)N1CCN(c3ncccn3)CC1)[C@]1(C(=O)Nc3ccc(C#CCCO)cc31)[C@H]2c1ccc(O)cc1", "Value reported": "1.59 (inactive)"}
{"Compound": "CC(=O)c1ccc(C(O)C2C=CC3C(=O)N(c4ccccc4)C(=O)C3N2Nc2ccc(C(C)C)cc2)cc1 (stereo not given)", "Value reported": "-0.532 (inactive)"}
{"Compound": "CC(C)=C1C(=O)C(c2ccccc2)=C2CN3C(=O)N(CCc4ccccc4)C(=O)[C@]3(C)[C@H]21", "Value reported": "-0.337 (inactive)"}
{"Compound": "CCOC(=O)C1=CC[C@@H](c2ccc(OC)cc2)N(S(=O)(=O)c2ccc(C)cc2)[C@H]1CC", "Value reported": "0.198 (inactive)"}
{"Compound": "O=C1[C@@H]2[C@@H](CC(COc3ccccc3)=C([C@H](O)CCc3ccccc3)[C@@H]2CO)C(=O)N1Cc1ccccc1", "Value reported": "-0.833 (inactive)"}
{"Compound": "O=C(NCCN1CCOCC1)[C@@H]1c2ccccc2C(=O)N(Cc2ccc(OC(F)(F)F)cc2)[C@H]1c1ccc(CO)cc1", "Value reported": "0.614 (inactive)"}
{"Compound": "COC(=O)[C@H](Cc1ccc(O)cc1)N[C@@H](/C=C/C1CC1)[C@H](O)Cc1ccccc1", "Value reported": "0.0243 (inactive)"}
{"Compound": "CCCCCCc1nc(Cc2cc(OC)c(OC)c(OC)c2)cc2c1[Si](C(C)C)(C(C)C)O[C@H]2c1ccccc1", "Value reported": "2.45 (inactive)"}
{"Compound": "CC(C)NC(=O)[C@@]1(C)c2ccccc2C(=O)N(Cc2ccccc2)[C@H]1c1ccc(CO)cc1", "Value reported": "-0.268 (inactive)"}
{"Compound": "C=CCC(OC(C)=O)[C@@H]1[C@@H](N(Cc2cccc3ccccc23)C(=O)Cc2ccc(OC)cc2)c2cc(OCCCO)ccc2N1C(=O)Cc1ccc2ccccc2c1 (stereo not given in full)", "Value reported": "0.719 (inactive)"}
{"Compound": "CCOc1cc(C(O)C2C=CC3C(=O)N(c4ccccc4)C(=O)C3N2Nc2ccccc2F)ccc1O (stereo not given)", "Value reported": "-0.928 (inactive)"}
